Hey, just so you know, these numbers are from patent US20230023559A1.

IC50 values by entry
target: hERG channel (Homo sapiens); test: hERG electrophysiology, automated whole-cell patch clamp (Patchliner)
Sequence (Q12809 whole entry): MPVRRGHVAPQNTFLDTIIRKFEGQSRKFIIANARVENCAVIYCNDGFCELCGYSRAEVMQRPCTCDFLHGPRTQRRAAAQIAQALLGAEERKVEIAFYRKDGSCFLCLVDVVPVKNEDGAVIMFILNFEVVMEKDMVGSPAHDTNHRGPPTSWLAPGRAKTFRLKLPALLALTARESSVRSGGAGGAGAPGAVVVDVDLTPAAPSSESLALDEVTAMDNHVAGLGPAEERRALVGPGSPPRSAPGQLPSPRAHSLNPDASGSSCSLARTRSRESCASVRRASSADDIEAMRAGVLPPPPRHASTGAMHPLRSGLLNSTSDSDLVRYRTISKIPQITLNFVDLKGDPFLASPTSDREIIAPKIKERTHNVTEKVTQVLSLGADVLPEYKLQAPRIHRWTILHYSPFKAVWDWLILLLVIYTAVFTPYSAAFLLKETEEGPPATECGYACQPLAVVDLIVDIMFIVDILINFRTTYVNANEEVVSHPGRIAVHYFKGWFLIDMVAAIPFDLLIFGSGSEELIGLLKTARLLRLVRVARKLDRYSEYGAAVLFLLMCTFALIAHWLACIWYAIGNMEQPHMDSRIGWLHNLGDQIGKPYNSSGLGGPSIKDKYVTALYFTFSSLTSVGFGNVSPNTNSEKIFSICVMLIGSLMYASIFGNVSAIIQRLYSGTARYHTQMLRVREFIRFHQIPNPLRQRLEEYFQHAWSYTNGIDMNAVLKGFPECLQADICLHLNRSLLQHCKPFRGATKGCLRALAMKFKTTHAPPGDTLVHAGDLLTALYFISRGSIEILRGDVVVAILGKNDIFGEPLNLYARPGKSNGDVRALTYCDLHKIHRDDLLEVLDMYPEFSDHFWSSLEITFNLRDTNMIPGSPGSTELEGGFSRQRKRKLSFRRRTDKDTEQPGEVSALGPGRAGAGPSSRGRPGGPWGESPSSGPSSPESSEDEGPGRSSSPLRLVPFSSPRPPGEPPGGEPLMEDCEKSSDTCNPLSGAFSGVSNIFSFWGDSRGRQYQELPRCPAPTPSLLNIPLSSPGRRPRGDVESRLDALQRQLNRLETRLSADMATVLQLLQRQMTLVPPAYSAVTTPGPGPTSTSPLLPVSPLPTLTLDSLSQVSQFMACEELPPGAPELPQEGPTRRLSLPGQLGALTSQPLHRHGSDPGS

>  <Compound>
Cn1ccc(N2CCC([C@@H](N)c3cc(Cl)c(Cl)cc3O)CC2)cc1=O

>  <Test target>
hERG channel (Homo sapiens)

>  <IC50>
< 30 µM

$$$$
>  <Compound>
N[C@@H](c1c(O)cc(Cl)c(Cl)c1F)C1CCN(C(=O)c2ccc(=O)[nH]c2)CC1

>  <Test target>
hERG channel (Homo sapiens)

>  <IC50>
> 30 µM

$$$$
>  <Compound>
N#CC1(C(=O)N2CCC(C(N)c3cc(Cl)c(Cl)cc3O)CC2)CC1 (stereo not shown)

>  <Test target>
hERG channel (Homo sapiens)

>  <IC50>
< 30 µM

$$$$
>  <Compound>
N[C@@H](c1cc(Cl)c(Cl)cc1O)C1CCN(C(=O)C2CCNC(=O)C2)CC1 (stereo partly shown)

>  <Test target>
hERG channel (Homo sapiens)

>  <IC50>
> 30 µM

$$$$
>  <Compound>
N[C@@H](c1cc(Cl)c(Cl)cc1O)C1CCN(C(=O)C2(O)CNC2)CC1

>  <Test target>
hERG channel (Homo sapiens)

>  <IC50>
> 30 µM

$$$$
>  <Compound>
N[C@@H](c1cc(Cl)c(Cl)cc1O)C1CCN(C(=O)[C@@H]2CCC(=O)N2)CC1

>  <Test target>
hERG channel (Homo sapiens)

>  <IC50>
> 30 µM

$$$$
>  <Compound>
NC(c1c(O)cc(Cl)c(Cl)c1F)C1CCN(C(=O)[C@H](O)CO)CC1 (stereo partly shown)

>  <Test target>
hERG channel (Homo sapiens)

>  <IC50>
> 30 µM

$$$$

###

biological target: Kv1.3 potassium channel (Homo sapiens); assay: Kv1.3 potassium channel blocker activity, automated whole-cell patch clamp (Patchliner); conditions: CHO-K1 cells stably expressing Kv1.3; whole cell current inhibition; read-out: Kv1.3_IC50
Sequence (P22001 whole entry): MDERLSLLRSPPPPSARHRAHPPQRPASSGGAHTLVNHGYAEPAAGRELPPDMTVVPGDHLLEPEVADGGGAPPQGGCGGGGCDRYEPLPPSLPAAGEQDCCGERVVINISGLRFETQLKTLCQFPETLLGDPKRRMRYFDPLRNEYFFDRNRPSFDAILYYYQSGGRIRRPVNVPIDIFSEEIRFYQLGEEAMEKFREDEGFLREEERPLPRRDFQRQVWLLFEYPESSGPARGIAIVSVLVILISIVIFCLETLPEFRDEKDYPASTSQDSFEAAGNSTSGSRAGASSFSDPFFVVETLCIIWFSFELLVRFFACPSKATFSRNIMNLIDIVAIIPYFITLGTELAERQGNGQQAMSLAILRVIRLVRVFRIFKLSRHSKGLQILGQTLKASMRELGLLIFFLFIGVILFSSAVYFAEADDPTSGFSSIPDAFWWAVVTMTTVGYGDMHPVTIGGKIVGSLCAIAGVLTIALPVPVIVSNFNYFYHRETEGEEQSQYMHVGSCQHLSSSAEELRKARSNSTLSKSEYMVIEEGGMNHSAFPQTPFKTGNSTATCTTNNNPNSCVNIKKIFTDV
# key: entry, value: IC50

>  <Molecule>
CN1CCC(C(NC(=O)C(F)(F)F)c2cc(Cl)c(Cl)cc2O)CC1 (stereo not drawn)

>  <Test target>
Kv1.3 potassium channel (Homo sapiens)

>  <IC50>
< 10000 nM

$$$$
>  <Molecule>
N[C@@H](c1cc(Cl)c(Cl)cc1O)C1CCN(C(=O)c2cn[nH]c2)CC1

>  <Test target>
Kv1.3 potassium channel (Homo sapiens)

>  <IC50>
< 500 nM

$$$$
>  <Molecule>
NC(c1cc(Cl)c(Cl)cc1O)C1CCN(c2ccccn2)CC1 (stereo not drawn)

>  <Test target>
Kv1.3 potassium channel (Homo sapiens)

>  <IC50>
< 500 nM

$$$$
>  <Molecule>
NC(c1cc(Cl)c(Cl)cc1O)C1CCN(C2CCNC2=O)CC1 (stereo not drawn)

>  <Test target>
Kv1.3 potassium channel (Homo sapiens)

>  <IC50>
< 10000 nM

$$$$
>  <Molecule>
Cn1cc(C(=O)N2CCC([C@@H](N)c3cc(Cl)c(Cl)cc3O)CC2)ccc1=O

>  <Test target>
Kv1.3 potassium channel (Homo sapiens)

>  <IC50>
< 500 nM

$$$$
>  <Molecule>
CC1(C)C[C@@H]([C@H](N)c2cc(Cl)c(Cl)cc2O)CCN1 (single isomer, unassigned; diastereoisomer 1)

>  <Test target>
Kv1.3 potassium channel (Homo sapiens)

>  <IC50>
< 30000 nM

$$$$
>  <Molecule>
Cc1cc(O)c([C@H](N)C2CCN(C(=O)c3c[nH]c(=O)c(C#N)c3)CC2)cc1Cl

>  <Test target>
Kv1.3 potassium channel (Homo sapiens)

>  <IC50>
< 500 nM

$$$$
>  <Molecule>
Cc1n[nH]c(C)c1C(=O)N1CCC([C@@H](N)c2cc(Cl)c(Cl)cc2O)CC1

>  <Test target>
Kv1.3 potassium channel (Homo sapiens)

>  <IC50>
< 10000 nM

$$$$
>  <Molecule>
NC(c1cc(Cl)c(Cl)cc1O)C1CCNCC1 (stereo not drawn)

>  <Test target>
Kv1.3 potassium channel (Homo sapiens)

>  <IC50>
< 10000 nM

$$$$
>  <Molecule>
N[C@@H](c1cc(Cl)c(Cl)cc1O)[C@@H]1CCCN(C(=O)[C@H](O)CO)CC1 (single isomer, unassigned; isomer 1)

>  <Test target>
Kv1.3 potassium channel (Homo sapiens)

>  <IC50>
< 10000 nM

$$$$
>  <Molecule>
Cc1cc(O)c([C@H](N)C2CCN(C(=O)c3ccc4oc(=O)[nH]c4c3)CC2)cc1Cl

>  <Test target>
Kv1.3 potassium channel (Homo sapiens)

>  <IC50>
< 500 nM

$$$$
>  <Molecule>
CC(=O)N1CCC(C(N)c2cc(Cl)c(Cl)cc2O)CC1 (stereo not drawn)

>  <Test target>
Kv1.3 potassium channel (Homo sapiens)

>  <IC50>
< 10000 nM

$$$$
>  <Molecule>
CC1CN(C(=O)[C@H](O)CO)CCC1[C@@H](N)c1cc(Cl)c(Cl)cc1O (single isomer, unassigned; isomer 1)

>  <Test target>
Kv1.3 potassium channel (Homo sapiens)

>  <IC50>
< 500 nM

$$$$
>  <Molecule>
N[C@@H](CO)C(=O)N1CCC([C@@H](N)c2cc(Cl)c(Cl)cc2O)CC1

>  <Test target>
Kv1.3 potassium channel (Homo sapiens)

>  <IC50>
< 500 nM

$$$$
>  <Molecule>
N[C@@H](c1cc(Cl)c(Cl)cc1O)C1CCN(C(=O)[C@H]2CNC(=O)CO2)CC1 (single isomer, unassigned; isomer 2)

>  <Test target>
Kv1.3 potassium channel (Homo sapiens)

>  <IC50>
< 500 nM

$$$$
